experimental_protocol: Solubility study in aqueous buffers and organic solvents
Assay type: physicochemical
protocol_conditions: thermodynamic from solid; Water, n = 3; read-out: Relative solubility in water
Procedure: The solubility of AD-EM compared to EM was evaluated in several different aqueous buffers (i.e., PBS, Water, Acetate pH 5.0) and polar solvents (i.e., methanol, ethyl acetate, acetone). The solubility study presented in Table 1 further verifies that modified AD-EM is more hydrophobic than EM due to the addition of the hydrophobic AD group. […]
quantity_measured: solubility (µg/mL)

1. CC[C@H]1OC(=O)[C@H](C)[C@@H](OC2C[C@@](C)(OC)[C@@H](O)[C@H](C)O2)[C@H](C)[C@@H](OC2O[C@H](C)C[C@H](N(C)C)[C@H]2O)[C@](C)(O)C[C@@H](C)/C(=N\NC(=O)C23CC4CC(CC(C4)C2)C3)[C@H](C)[C@@H](O)[C@]1(C)O (some centres unmarked) | 330
2. CC[C@H]1OC(=O)[C@H](C)[C@@H](O[C@H]2C[C@@](C)(OC)[C@@H](O)[C@H](C)O2)[C@H](C)[C@@H](O[C@@H]2O[C@H](C)C[C@H](N(C)C)[C@H]2O)[C@](C)(O)C[C@@H](C)C(=O)[C@H](C)[C@@H](O)[C@]1(C)O | 1500
